For reference, Ki measured on UniProtKB P22748:
The answer is to be given in nM; state only the numeric part.

{"columns": ["substance_smiles", "measured_target", "readout", "recorded_value"],
 "data": [
  ["NS(=O)(=O)c1ccc(N/C=C/C(=O)c2ccco2)cc1", "UniProtKB P22748", "Ki", 6.5]
]}

Now look at this entry.
Ki reported for this molecule NS(=O)(=O)c1ccc(N/C=C/C(=O)c2ccc(F)cc2)cc1 : 6.5

---

- measured_target: Carbonic anhydrase 12 (Homo sapiens, UniProt O43570)
- Sequence (O43570 whole entry): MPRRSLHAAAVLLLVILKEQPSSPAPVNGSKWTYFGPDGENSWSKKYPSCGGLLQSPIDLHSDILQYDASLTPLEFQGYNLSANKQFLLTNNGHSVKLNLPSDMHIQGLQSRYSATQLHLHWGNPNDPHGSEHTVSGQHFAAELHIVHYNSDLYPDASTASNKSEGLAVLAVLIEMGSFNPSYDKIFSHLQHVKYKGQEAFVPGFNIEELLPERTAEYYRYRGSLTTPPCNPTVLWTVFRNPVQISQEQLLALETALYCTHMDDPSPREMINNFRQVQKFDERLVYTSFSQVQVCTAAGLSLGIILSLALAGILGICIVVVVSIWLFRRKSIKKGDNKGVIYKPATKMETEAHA
Ki by entry:
Could you give me the number in nM? Just the number is fine.

{"columns": ["substance_smiles", "Ki (nM)"],
 "data": [
  ["COc1ccc(C(=O)N2C(=O)/C(=N\\NC(=O)CNc3ccc(S(N)(=O)=O)cc3)c3ccccc32)cc1", 22.3],
  ["NS(=O)(=O)c1ccc(CCNC(=O)CSc2nc3ccc(I)cc3c(=O)n2Cc2ccccc2)cc1", 5.2]
]}

Value of measured Ki for the entry O=S1(=O)C=Cc2cc(-c3nnnn3-c3ccccc3)ccc2O1 : 5.4

Entry O=S1(=O)C=Cc2cc(-n3cc(-c4ccc(Cl)cc4)nn3)ccc2O1 ; Ki = 5.4

What the record says about NS(=O)(=O)c1ccc(NCC(=O)N/N=C2\C(=O)N(Cc3ccccc3)c3ccccc32)cc1 : Ki is 34.3

Documented Ki of CC(C)[C@@H](CC(=O)[C@@H](C)CC(=O)OCc1ccccc1)C(=O)NCc1ccc(S(N)(=O)=O)cc1 : 7.4

Briefly, Ki measured for C=CCN1C(=O)/C(=N\Nc2ccc(S(N)(=O)=O)cc2)c2ccccc21 : 34.3

Query CCN1C(=O)/C(=N\c2ccc(S(N)(=O)=O)cc2)c2ccccc21 yields Ki of 34.3

---

- measured_target: Acetylcholinesterase (Homo sapiens, UniProt P22303)
- Sequence (P22303 whole entry): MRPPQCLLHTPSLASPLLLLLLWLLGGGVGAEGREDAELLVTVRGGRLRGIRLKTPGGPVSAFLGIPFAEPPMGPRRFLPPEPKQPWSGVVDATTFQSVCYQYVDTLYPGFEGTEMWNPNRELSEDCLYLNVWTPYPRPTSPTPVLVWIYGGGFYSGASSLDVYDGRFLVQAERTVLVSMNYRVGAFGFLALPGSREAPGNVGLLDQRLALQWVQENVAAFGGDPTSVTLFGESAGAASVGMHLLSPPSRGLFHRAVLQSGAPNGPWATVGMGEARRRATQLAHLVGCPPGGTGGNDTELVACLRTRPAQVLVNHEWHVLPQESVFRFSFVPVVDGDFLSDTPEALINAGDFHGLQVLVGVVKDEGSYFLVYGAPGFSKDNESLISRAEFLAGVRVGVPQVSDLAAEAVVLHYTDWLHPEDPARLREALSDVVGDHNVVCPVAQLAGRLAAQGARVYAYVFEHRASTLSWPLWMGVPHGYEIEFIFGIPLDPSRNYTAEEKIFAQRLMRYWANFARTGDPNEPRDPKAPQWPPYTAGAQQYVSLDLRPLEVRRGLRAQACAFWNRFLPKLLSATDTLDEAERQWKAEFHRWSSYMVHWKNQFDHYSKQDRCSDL
readout: Ki (nM)
Number only, in nM; omit the unit.

The reported value for NS(=O)(=O)c1ccc(N2N=C(c3cccs3)CC2c2ccc(Br)cc2)cc1 (stereo unspecified) in terms of Ki is 80.6

---

- measured_target: Carbonic anhydrase 9 (Homo sapiens)
pKi: −log10 of the molar value.
readout: pKi

Consider the reported pKi for these compounds:
{"columns": ["compound", "measured_target", "pKi"],
 "data": [
  ["COc1ccc(C2CC(c3ccccc3)=NN2c2ccc(S(N)(=O)=O)cc2)c(OC)c1OC (stereo unspecified)", "Carbonic anhydrase 9 (Homo sapiens)", "< 7.36"],
  ["COc1cc(OC)c(C2CC(c3ccccc3)=NN2c2ccc(S(N)(=O)=O)cc2)cc1OC (stereo unspecified)", "Carbonic anhydrase 9 (Homo sapiens)", "< 7.36"],
  ["COc1ccc(C2CC(c3ccc(Cl)cc3)=NN2c2ccc(S(N)(=O)=O)cc2)c(OC)c1OC (stereo unspecified)", "Carbonic anhydrase 9 (Homo sapiens)", "< 7.36"]
]}

Per the record, Cc1ccc(/C=C2/SC(=O)N(CC(=O)O)C2=O)cc1 has pKi of < 4.00

Measured pKi, COc1cc(C2CC(c3ccccc3)=NN2c2ccc(S(N)(=O)=O)cc2)cc(OC)c1OC (stereo unspecified) : < 7.36

The compound listed as COc1cc(C2CC(c3ccc(F)cc3)=NN2c2ccc(S(N)(=O)=O)cc2)cc(OC)c1OC (stereo unspecified) has a reported pKi of < 7.36

---

This section lists Ki readings for UniProt:Q16790.

{"columns": ["substance_smiles", "Ki"],
 "data": [
  ["NS(=O)(=O)c1ccc(N2C(=O)c3ccc(C(=O)O)cc3C2=O)cc1", "0.0541 µM"],
  ["CCOC(=O)c1ccc(N2C(=O)c3ccc(C(=O)O)cc3C2=O)cc1", "> 10 µM"]
]}

Observed Ki on UniProt:Q16790, entry COC(=O)c1ccc2c(c1)C(=O)N(c1ccccc1)C2=O , equals > 10 µM

---

As a worked illustration, we turn to Ki data collected for Carbonic anhydrase 1 (Homo sapiens, UniProt P00915).

{"columns": ["substance_smiles", "Ki"],
 "data": [
  ["COc1cc([SeH])cc(OC)c1OC", "> 50 µM"],
  ["NS(=O)(=O)c1ccc(N/C=C/C(=O)c2ccc3ccccc3c2)cc1", "> 10 µM"]
]}

Please fill in: Ki reported for NS(=O)(=O)c1ccc(N/C=C/C(=O)c2ccc([N+](=O)[O-])cc2)cc1 = > 10 µM

---

Measured pKi on Carbonic anhydrase 12 (Homo sapiens) follows.
Would you please state pKi, meaning minus log10 of the concentration in mol/L, as a bare number?

{"columns": ["substance_smiles", "recorded_value"],
 "data": [
  ["NS(=O)(=O)c1ccc(CCn2c(SCc3ccccc3)nc3ccccc3c2=O)cc1", 7.76],
  ["NS(=O)(=O)c1ccc(CCn2c(SCc3ccc([N+](=O)[O-])cc3)nc3ccccc3c2=O)cc1", 7.76],
  ["NS(=O)(=O)c1ccc(C(=O)N/N=C/c2ccc(O)cc2)cc1", 8.07],
  ["NS(=O)(=O)c1ccc(C(=O)N/N=C/c2ccccc2O)cc1", 8.07],
  ["CCN(CC)c1ccc(/C=N/NC(=O)c2ccc(S(N)(=O)=O)cc2)c(O)c1", 8.07]
]}

For the next question, use this compound.
Form: compound = COc1cc(/C=N/NC(=O)c2ccc(S(N)(=O)=O)cc2)ccc1O ; pKi = 8.01

---

- measured_target: Carbonic anhydrase 4 (Homo sapiens, UniProt P22748)
- Sequence (P22748 whole entry): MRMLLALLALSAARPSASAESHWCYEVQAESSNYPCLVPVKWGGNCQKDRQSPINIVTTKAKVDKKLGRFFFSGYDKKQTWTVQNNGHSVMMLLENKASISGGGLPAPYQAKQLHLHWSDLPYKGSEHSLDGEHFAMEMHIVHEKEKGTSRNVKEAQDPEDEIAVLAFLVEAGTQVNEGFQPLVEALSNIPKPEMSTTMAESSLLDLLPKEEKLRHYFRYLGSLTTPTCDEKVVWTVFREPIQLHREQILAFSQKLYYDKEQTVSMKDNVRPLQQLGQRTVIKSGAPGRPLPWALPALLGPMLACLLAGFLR
readout: Ki (nM)
Provide only the numeric value, understood in nM.

Known Ki results, listed for orientation:
{"columns": ["substance_smiles", "Ki (nM)"],
 "data": [
  ["NS(=O)(=O)c1cccc(N/C=C/C(=O)c2ccccc2)c1", 6.5],
  ["NS(=O)(=O)c1ccc(N/C=C/C(=O)c2cccs2)cc1", 6.5]
]}

API: the following record is the query input.
Entry NS(=O)(=O)c1cccc(N/C=C/C(=O)c2ccco2)c1 , Carbonic anhydrase 4 (Homo sapiens, UniProt P22748) data, Ki value: 64.5

---

Lab note: pKi readings collected with Carbonic anhydrase 12 (Homo sapiens, UniProt O43570) for the following molecules.
// scale note: pKi = -log10(conc_M); give the bare number

{"columns": ["substance_smiles", "pKi"],
 "data": [
  ["N#CCSc1nc2ccccc2c(=O)n1CCc1ccc(S(N)(=O)=O)cc1", 7.24]
]}

Form field pKi, entry CCSc1nc2ccccc2c(=O)n1CCc1ccc(S(N)(=O)=O)cc1 : 7.24

pKi measured on O=c1c2ccccc2nc(SCCN2CCCCC2)n1CCc1ccccc1 = 7.76

Note to self: pKi recorded for N#Cc1ccc(CSc2nc3ccccc3c(=O)n2CCc2ccc(S(N)(=O)=O)cc2)cc1 was 7.76

Quick note, pKi for O=C1c2ccccc2C(=O)N1CCCSc1nc2ccccc2c(=O)n1CCc1ccccc1 landed at 7.76

Input Cc1ccc(CSc2nc3ccccc3c(=O)n2CCc2ccc(S(N)(=O)=O)cc2)cc1 . Output pKi: 7.76

---

Each entry below carries its measured pKi, system: Carbonic anhydrase 4 (Homo sapiens).
Keep in mind that pKi stands for -log10 of concentration in molar terms.

{"columns": ["substance_smiles", "pKi"],
 "data": [
  ["NS(=O)(=O)c1cccc(N/C=C/C(=O)c2ccc(Cl)cc2)c1", 8.19]
]}

Entry NS(=O)(=O)c1cccc(N/C=C/C(=O)c2cccs2)c1 ; assay system Carbonic anhydrase 4 (Homo sapiens); pKi recorded at 8.06

NS(=O)(=O)c1ccc(N/C=C/C(=O)c2ccc([N+](=O)[O-])cc2)cc1 tested on Carbonic anhydrase 4 (Homo sapiens) gave pKi: 8.19

Item NS(=O)(=O)c1ccc(N/C=C/C(=O)c2ccc(Br)cc2)cc1 ; assay system Carbonic anhydrase 4 (Homo sapiens); pKi reported as 8.19

Reading of pKi for COc1ccc(C(=O)/C=C/Nc2cccc(S(N)(=O)=O)c2)cc1 with Carbonic anhydrase 4 (Homo sapiens): 8.19

Query NS(=O)(=O)c1ccc(N/C=C/C(=O)c2ccc(Cl)cc2)cc1 on Carbonic anhydrase 4 (Homo sapiens); pKi returned: 8.19
